Target: BRM (Homo sapiens, UniProt P51531)
Sequence (P51531 whole entry): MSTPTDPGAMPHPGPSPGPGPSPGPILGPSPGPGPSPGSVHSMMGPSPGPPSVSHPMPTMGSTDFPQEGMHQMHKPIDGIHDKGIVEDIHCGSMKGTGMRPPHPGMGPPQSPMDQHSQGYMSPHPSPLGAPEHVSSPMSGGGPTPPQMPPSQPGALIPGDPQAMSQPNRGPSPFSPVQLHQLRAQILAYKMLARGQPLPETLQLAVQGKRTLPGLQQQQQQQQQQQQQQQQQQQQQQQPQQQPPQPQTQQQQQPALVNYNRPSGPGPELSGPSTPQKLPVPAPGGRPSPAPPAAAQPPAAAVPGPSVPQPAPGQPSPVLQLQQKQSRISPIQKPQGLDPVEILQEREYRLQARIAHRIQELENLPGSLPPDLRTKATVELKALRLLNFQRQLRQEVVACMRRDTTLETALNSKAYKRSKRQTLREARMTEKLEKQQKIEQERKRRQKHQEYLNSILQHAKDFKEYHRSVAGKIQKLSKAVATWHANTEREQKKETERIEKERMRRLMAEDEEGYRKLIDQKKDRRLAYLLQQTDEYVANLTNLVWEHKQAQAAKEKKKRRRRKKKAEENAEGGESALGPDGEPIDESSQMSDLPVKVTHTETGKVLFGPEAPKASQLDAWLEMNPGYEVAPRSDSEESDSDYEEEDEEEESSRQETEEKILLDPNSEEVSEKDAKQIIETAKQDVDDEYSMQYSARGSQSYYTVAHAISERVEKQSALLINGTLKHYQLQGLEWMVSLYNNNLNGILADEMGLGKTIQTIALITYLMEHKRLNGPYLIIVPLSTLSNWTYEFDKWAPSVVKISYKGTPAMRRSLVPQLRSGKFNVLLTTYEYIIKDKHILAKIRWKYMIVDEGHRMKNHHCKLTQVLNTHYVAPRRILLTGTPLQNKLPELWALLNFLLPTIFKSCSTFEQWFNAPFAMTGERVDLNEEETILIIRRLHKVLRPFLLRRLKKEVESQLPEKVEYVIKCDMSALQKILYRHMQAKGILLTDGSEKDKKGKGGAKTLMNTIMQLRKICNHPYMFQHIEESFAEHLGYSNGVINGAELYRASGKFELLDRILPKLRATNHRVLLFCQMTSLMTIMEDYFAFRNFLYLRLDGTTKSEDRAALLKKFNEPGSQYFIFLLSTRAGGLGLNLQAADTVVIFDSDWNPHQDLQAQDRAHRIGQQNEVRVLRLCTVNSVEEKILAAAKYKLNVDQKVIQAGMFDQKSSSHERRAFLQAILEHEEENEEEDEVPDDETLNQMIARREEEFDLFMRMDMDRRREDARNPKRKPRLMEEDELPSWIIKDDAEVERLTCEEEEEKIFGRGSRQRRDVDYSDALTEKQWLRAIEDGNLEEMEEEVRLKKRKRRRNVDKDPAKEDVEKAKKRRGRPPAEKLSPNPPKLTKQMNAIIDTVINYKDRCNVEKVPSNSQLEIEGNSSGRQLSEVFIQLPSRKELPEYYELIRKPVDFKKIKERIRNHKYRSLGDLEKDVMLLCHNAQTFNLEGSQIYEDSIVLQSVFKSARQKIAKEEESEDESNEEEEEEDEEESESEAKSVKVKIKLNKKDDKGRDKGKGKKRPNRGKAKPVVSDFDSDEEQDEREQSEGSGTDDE
Experiment: ATPase catalytic activity assay (ADP-Glo), BRM
Settings: BRM ATPase: IC50 (uM), 30 nM BRM, 400 μM ATP
Assay readout: IC50

Below are worked cases with known answers.
| Compound | IC50 |
| --- | --- |
| C[C@@]1(C#N)COCc2ccc(C(=O)NCc3cc4nc(-n5cc(F)cn5)ccc4cn3)cc21 | 0.1 to 0.5 µM |
| CN(C)c1nccc(-c2ccc3cnc(CNC(=O)c4ccc5c(c4)[C@](C)(C#N)COC5)cc3n2)n1 | < 0.1 µM |
| COC1(c2ccccc2)CCN(c2ccnc(CNC(=O)c3ccc4c(c3)[C@](C)(C#N)COC4)c2)C1 (stereo partly drawn) | 0.1 to 0.5 µM |
| COc1nn(C)cc1-c1ccc2cnc(CNC(=O)c3cnc4c(c3)[C@](C)(F)COC4)cc2n1 | 0.1 to 0.5 µM |

// returns reported IC50 for input C[C@@]1(F)COCc2ncc(C(=O)NCc3cc4nc(-c5ccnc(N6CCC6)c5F)ccc4cn3)cc21
< 0.1 µM

// returns reported IC50 for input C[C@@]1(C#N)COCc2ccc(C(=O)NCc3cc4nc(-c5cncc(C6CC6)n5)ccc4cn3)cc21
< 0.1 µM

// returns reported IC50 for input C[C@H](O)c1cccc(-c2ccc3cnc(CNC(=O)c4ccc5c(c4)[C@](C)(F)COC5)cc3n2)n1
0.1 to 0.5 µM

// returns reported IC50 for input C[C@@H]1CN(c2cccc(-c3ccc4[nH]c(CNC(=O)c5ccc6c(c5)[C@](C)(CO)CC6)nc4c3)c2)C[C@H](C)O1
0.1 to 0.5 µM

// returns reported IC50 for input C[C@@]1(C#N)COCc2ccc(C(=O)NCc3cc4nc(-c5cn(C6COC6)nc5C5CC5)ccc4cn3)cc21
< 0.1 µM

// returns reported IC50 for input C[C@@]1(C#N)COCc2ccc(C(=O)NCc3cc4nc(-c5cccc6c5ccn6CCO)ccc4cn3)cc21
< 0.1 µM

// returns reported IC50 for input COC(C)(C)C#Cc1cccc(-c2ccc3cnc(CNC(=O)c4ccc5c(c4)[C@](C)(C#N)COC5)cc3n2)n1
< 0.1 µM

// returns reported IC50 for input C[C@@]1(C#N)COCc2ccc(C(=O)NCc3cc4cc(-c5cccc(N6CCC6)n5)ccc4cn3)cc21
< 0.1 µM

* * *

Target: BRM (Homo sapiens)
Experiment: ATPase catalytic activity assay (ADP-Glo), BRM
Details: 30 nM BRM, 400 μM ATP
Assay readout: BRM Max % Inhibition (%)

| Compound | Assay readout | Reported result |
| --- | --- | --- |
| C[C@@]1(C#N)COCc2ccc(C(=O)NCc3cc4cc(-c5ccnc(C6CC6)n5)cnc4cn3)cc21 [Compound 337] | BRM Max % Inhibition | 99 |
| C[C@@]1(C#N)COCc2ccc(C(=O)NCc3cc4nc(-c5cccc(N6CCCC6)n5)ccc4cn3)cc21 [Compound 361] | BRM Max % Inhibition | 98 |
| COc1cc(C2COC2)ccc1-c1ccc2cnc(CNC(=O)c3ccc4c(c3)[C@](C)(C#N)COC4)cc2n1 [Compound 175] | BRM Max % Inhibition | 97 |
| C[C@@]1(C#N)COCc2ccc(C(=O)NCc3cc4nc(-c5cnn6c5OCCC6)ccc4cn3)cc21 [Compound 405] | BRM Max % Inhibition | 85 |
| C[C@@]1(C#N)COCc2ccc(C(=O)NCc3cc4nc(-c5ccnc(N6CC[C@@H](F)C6)n5)ccc4cn3)cc21 [Compound 306] | BRM Max % Inhibition | 99 |
| C[C@@]1(C#N)COCc2ccc(C(=O)NCc3cc4cc(-c5ccnc(N6CCC6)n5)ccc4nn3)cc21 [Compound 336] | BRM Max % Inhibition | 99 |
| C[C@@]1(F)COCc2ccc(C(=O)NCc3cc4nc(-c5ccc(=O)n(C6CC6)n5)ccc4cn3)cc21 [Compound 233] | BRM Max % Inhibition | 98 |
| COc1nn(CC(F)F)cc1-c1ccc2cnc(CNC(=O)c3ccc4c(c3)[C@](C)(C#N)COC4)cc2n1 [Compound 202] | BRM Max % Inhibition | 94 |
| C[C@@]1(C#N)COCc2ccc(C(=O)NCc3cc4nc(-c5ccnc([C@H]6CC6(F)F)n5)ccc4cn3)cc21 [Compound 217] | BRM Max % Inhibition | 98 |
| COc1nn(C)cc1-c1ccc2cnc(CNC(=O)c3ccc4c(c3)[C@](C)(C#N)COC4)cc2n1 [Compound 454] | BRM Max % Inhibition | 97 |
| C[C@@]1(C#N)COCc2ccc(C(=O)NCc3cc4nc(-c5cncc(N6CCC6)c5)ccc4cn3)cc21 [Compound 441] | BRM Max % Inhibition | 97 |
| C[C@@]1(C#N)COCc2ccc(C(=O)NCc3cc4nc(-c5ccccc5)ccc4cn3)cc21 [Compound 85] | BRM Max % Inhibition | 98 |
| C[C@@]1(C#N)COCc2ccc(C(=O)NCc3cc4nc(-n5ccc(N6CCC6)n5)ccc4cn3)cc21 [Compound 426] | BRM Max % Inhibition | 97 |
| Cn1ncc2c(-c3ccc4cnc(CNC(=O)c5ccc6c(c5)[C@](C)(C#N)COC6)cc4n3)cccc21 [Compound 182] | BRM Max % Inhibition | 99 |
| CN(C)c1cccc(-c2ccc3cnc(CNC(=O)c4ccc5c(c4)[C@](C)(F)COC5)cc3n2)n1 [Compound 248] | BRM Max % Inhibition | 98 |
| C[C@@]1(C#N)COCc2ccc(C(=O)NCc3cc4nc(N5Cc6ccccc6C5=O)ccc4cn3)cc21 [Compound 303] | BRM Max % Inhibition | 96 |
| C[C@@]1(F)COCc2ccc(C(=O)NCc3cc4nc(-c5cncc(C6CC6)n5)ccc4cn3)cc21 [Compound 325] | BRM Max % Inhibition | 101 |
| C[C@@]1(C#N)COCc2ccc(C(=O)NCc3cc(/C=C/c4ccccc4)ccn3)cc21 [Compound 4] | BRM Max % Inhibition | 97 |
| C[C@@]1(F)COCc2ccc(C(=O)NCc3cc4nc(-c5cccc(C6CC6)n5)ccc4nn3)cc21 [Compound 240] | BRM Max % Inhibition | 101 |
| COc1ccccc1-c1cnc2cnc(CNC(=O)c3ccc4c(c3)[C@](C)(F)COC4)cc2n1 [Compound 256] | BRM Max % Inhibition | 98 |
| C[C@@]1(CO)COCc2ccc(C(=O)NCc3cc4nc(-c5ccccc5)sc4cn3)cc21 [Compound 115] | BRM Max % Inhibition | 84 |
| C[C@@]1(C#N)COCc2ccc(C(=O)NCc3cc4nc(-c5ccn6nccc6c5)ccc4cn3)cc21 [Compound 459] | BRM Max % Inhibition | 97 |
| C[C@@H]1COCCN1c1nccc(-c2ccc3cnc(CNC(=O)c4ccc5c(c4)[C@](C)(C#N)COC5)cc3n2)n1 [Compound 363] | BRM Max % Inhibition | 98 |
| C[C@@]1(C#N)COCc2ccc(C(=O)NCc3cc4nc(-c5cccc6c5ccn6CCO)ccc4cn3)cc21 [Compound 159] | BRM Max % Inhibition | 99 |
| COc1nn(C)cc1-c1ccc2nnc(CNC(=O)c3ccc4c(c3)[C@](C)(C#N)COC4)cc2c1 [Compound 329] | BRM Max % Inhibition | 100 |
| C[C@@]1(C#N)COCc2ccc(C(=O)NCc3cc4nc(-c5ccnc(N6CC[C@H](F)C6)n5)ccc4cn3)cc21 [Compound 341] | BRM Max % Inhibition | 100 |
| C[C@@]1(C#N)COCc2ccc(C(=O)NCc3cc4c(cn3)CCN(c3ccnc(N5CCC5)c3F)C4)cc21 [Compound 258] | BRM Max % Inhibition | 96 |
| Cn1ccc2c(-c3ccc4cnc(CNC(=O)c5ccc6c(c5)[C@](C)(C#N)COC6)cc4n3)cccc21 [Compound 179] | BRM Max % Inhibition | 99 |
| C[C@@]1(CO)CCc2ccc(C(=O)NCc3cc4nc(-c5ccccc5)ccc4cn3)cc21 [Compound 90] | BRM Max % Inhibition | 82 |

These measurements were taken from patent US12441726B2.
